- target-or-test-system: T1, human Sdc2 (human, UniProt P34741 19-144, limits assumed)
- T1 construct: Antigen of the Octet tandem binning, loaded on biosensors at 100 nM; also called huSdc2; hSdc2
- T1 sequence (P34741 19-144 limits assumed): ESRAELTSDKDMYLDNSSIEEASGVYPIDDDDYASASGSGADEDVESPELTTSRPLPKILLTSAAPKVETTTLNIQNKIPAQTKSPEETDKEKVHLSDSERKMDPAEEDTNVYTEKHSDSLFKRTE
- experimental-details: Octet tandem binning; saturating Ab m1 19838-20H19-AB
Kindly supply the reported raw competing-Ab binding signal values for the records listed here.
Answers are plain numbers.

>>> recorded_value("R4M-P3-E06 (antibody, human IgG1, kappa, V domains shown, human IgG1 kappa from the phage campaign) VH: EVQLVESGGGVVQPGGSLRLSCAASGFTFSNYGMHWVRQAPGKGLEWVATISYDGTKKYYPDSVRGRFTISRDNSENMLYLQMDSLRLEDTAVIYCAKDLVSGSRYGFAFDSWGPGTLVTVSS VL: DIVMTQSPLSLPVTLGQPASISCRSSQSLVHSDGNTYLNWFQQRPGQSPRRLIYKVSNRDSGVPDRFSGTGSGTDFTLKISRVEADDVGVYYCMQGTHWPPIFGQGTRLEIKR")
0.284
>>> recorded_value("R3-P3-E09 (antibody, human IgG1, kappa, V domains shown, human IgG1 kappa from the phage campaign) VH: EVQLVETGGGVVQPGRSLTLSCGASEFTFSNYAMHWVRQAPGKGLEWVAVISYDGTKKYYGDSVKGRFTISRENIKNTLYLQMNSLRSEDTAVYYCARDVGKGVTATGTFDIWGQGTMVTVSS VL: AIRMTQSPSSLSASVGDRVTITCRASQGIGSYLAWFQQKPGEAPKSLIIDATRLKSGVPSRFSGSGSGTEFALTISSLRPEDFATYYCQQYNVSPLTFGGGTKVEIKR")
0.273
>>> recorded_value("R4M-P3-A12 (antibody, human IgG1, kappa, V domains shown) VH: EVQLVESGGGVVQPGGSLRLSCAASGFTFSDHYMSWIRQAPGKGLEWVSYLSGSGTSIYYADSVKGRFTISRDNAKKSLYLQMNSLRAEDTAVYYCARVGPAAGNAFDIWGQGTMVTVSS VL: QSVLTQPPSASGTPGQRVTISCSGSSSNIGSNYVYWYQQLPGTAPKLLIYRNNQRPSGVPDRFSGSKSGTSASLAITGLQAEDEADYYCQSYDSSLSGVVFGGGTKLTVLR")
0.153
>>> recorded_value("8-G17-A (antibody, V domains shown, PentaMice hybridoma clone, made recombinantly in CHO cells) VH: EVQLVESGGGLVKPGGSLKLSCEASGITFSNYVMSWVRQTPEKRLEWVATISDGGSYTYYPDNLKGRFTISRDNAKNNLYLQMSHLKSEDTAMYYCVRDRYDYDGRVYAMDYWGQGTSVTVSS VL: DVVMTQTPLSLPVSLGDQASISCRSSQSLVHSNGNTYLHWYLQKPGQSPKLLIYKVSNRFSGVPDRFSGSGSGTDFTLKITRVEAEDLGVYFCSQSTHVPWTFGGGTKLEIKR")
0.16

The record that follows has no raw competing-Ab binding signal shown yet.
Exercise: Which raw competing-Ab binding signal value is on record for R4M-P1-A10 (antibody, human IgG1, kappa, V domains shown) VH: EVQLVETGGGVVQPGRSLRLSCAASGFTFSSYAMHWVRQAPGKGLEWVAVISYDGSNKYYADSVKGRFTISRDNSKNTLYLQMNSLRAEDTAVYYCARDRGWADAFDIWGQGTMVTVSS VL: QAGLTQPPSVSKGLRQTATLTCTGNSNNVGYQGAVWLLQYQGHPPKVLSNRNNDRPSGISERLSASRSGNTASLTITGLQPEDEGDYFCAAWDGSLRGWVFGGGTKLTVLR ?
Key: 0.439
